Below are molecules with their pIC50 as measured on Acetylcholinesterase (Homo sapiens).
Sequence (P22303 whole entry): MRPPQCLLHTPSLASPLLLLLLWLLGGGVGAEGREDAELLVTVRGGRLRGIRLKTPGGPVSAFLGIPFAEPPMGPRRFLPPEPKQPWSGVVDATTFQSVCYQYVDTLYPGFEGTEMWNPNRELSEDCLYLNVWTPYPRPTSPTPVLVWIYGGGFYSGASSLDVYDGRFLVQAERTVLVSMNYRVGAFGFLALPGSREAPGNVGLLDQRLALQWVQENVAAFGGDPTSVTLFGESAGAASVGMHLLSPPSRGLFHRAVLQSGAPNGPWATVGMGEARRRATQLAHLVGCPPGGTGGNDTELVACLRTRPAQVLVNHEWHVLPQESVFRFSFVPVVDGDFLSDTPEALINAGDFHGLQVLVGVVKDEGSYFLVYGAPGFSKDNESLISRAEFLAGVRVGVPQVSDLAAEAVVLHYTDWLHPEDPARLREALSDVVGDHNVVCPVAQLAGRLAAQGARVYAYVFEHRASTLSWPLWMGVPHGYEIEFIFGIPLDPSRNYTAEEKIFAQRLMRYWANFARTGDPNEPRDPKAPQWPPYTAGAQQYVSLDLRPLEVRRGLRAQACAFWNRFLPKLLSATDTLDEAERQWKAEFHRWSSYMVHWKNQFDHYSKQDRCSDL
Entry type: numeric. Quantity: pIC50, the -log10 of concentration in molar units.

Here are 4 molecules together with their reported answers.
{"smiles_string": "COc1cccc(CN(C)CCCCCCCOc2ccc3c(=O)c4ccccc4oc3c2)c1OC", "pIC50": 3.86}
{"smiles_string": "COc1ccccc1CN(C)CCCCCCCOc1ccc2c(=O)c3ccccc3oc2c1", "pIC50": 5.66}
{"smiles_string": "CN(CCCCCCCOc1ccc2c(=O)c3ccccc3oc2c1)Cc1ccccc1[N+](=O)[O-]", "pIC50": 3.38}
{"smiles_string": "COc1ccc(CN(C)CCCCCCCOc2ccc3c(=O)c4ccccc4oc3c2)cc1", "pIC50": 3.44}

// moving on: another record for pIC50
Give its pIC50 value. Item: CN(CCCCCCCOc1ccc2c(=O)c3ccccc3oc2c1)Cc1cccc(Cl)c1
3.23
